# TESTED_TARGET: Bile acid receptor (Homo sapiens)
# METHOD_NOTES: FXR activators in GAL4 reporter cells, late-stage follow-up, selectivity assay for RORA inverse agonist project, cell-based, luciferase luminescence, assay provider, powder samples (AID 463145)
# CONDITION_LABEL: HEK293T GAL4-FXR LBD luciferase reporter, 18-24 h; at 10 µM; hits give high values
EXPERIMENTAL_ENDPOINT: fold change

SMILES_CODE: O=S(=O)(Nc1ccc(C(O)(C(F)(F)F)C(F)(F)F)cc1)c1cccs1
ENDPOINT_RESULT: 1.21
--
SMILES_CODE: O=C(Nc1ccc(C(O)(C(F)(F)F)C(F)(F)F)cc1)c1ccccc1C(F)(F)F
ENDPOINT_RESULT: 0.846
--
SMILES_CODE: O=C(Nc1ccc(C(O)(C(F)(F)F)C(F)(F)F)cc1)c1ccc(F)cc1Cl
ENDPOINT_RESULT: 1.07
--
SMILES_CODE: O=C(Nc1ccc(C(O)(C(F)(F)F)C(F)(F)F)cc1)c1c(F)cccc1F
ENDPOINT_RESULT: 1.06
--
SMILES_CODE: O=C(Nc1ccc(C(O)(C(F)(F)F)C(F)(F)F)cc1)c1ccc(F)cc1F
ENDPOINT_RESULT: 1.52
--
SMILES_CODE: O=C(Nc1ccc(C(O)(C(F)(F)F)C(F)(F)F)cc1)c1ccc(Cl)cc1
ENDPOINT_RESULT: 1.14
